The values you see were collected from patent US9790207B2.

Some compounds, each annotated with its measured EC50.
- System: HCV gT2a replicon
- assay explanation: HCV replicon assay, gT2a
- Format: cell-based, Hepatitis C virus (HCV)
- conditions: Hepatitis C virus, GT2A, Huh-7; Huh7 replicon cells; mean
Counter-ions that a name gives are not always drawn.
Note: unit pM is implicit; provide only the numeric part.

Use the examples below as a reference point.
- COC(=O)N[C@H](C(=O)N1CCC[C@H]1c1ncc(-c2ccc(C#CC#Cc3cnc([C@@H]4CCCN4C(=O)[C@H](NC(=O)OC)c4ccccc4)[nH]3)c(N(C)c3ccccc3)c2)[nH]1)C(C)C [2(21)•2HCl, trihydrochloride]: 10.6
- COC(=O)N[C@H](C(=O)N1CCC[C@H]1c1ncc(-c2ccc(-c3ccc(-c4cnc([C@@H]5CCCN5C(=O)[C@H](NC(=O)OC)c5ccccc5)[nH]4)cc3)c(Oc3ccccc3)c2)[nH]1)C(C)C [2(23)•2HCl, dihydrochloride]: 4.1
- COC(=O)N[C@H](C(=O)N1CCC[C@H]1c1ncc(-c2ccc(-c3ccc(-c4cnc([C@@H]5CCCN5C(=O)[C@H](NC(=O)OC)c5ccccc5)[nH]4)cc3)c(-c3ccccc3)c2)[nH]1)C(C)C [2(22)•2HCl, dihydrochloride]: 3.9

For the next question, use this compound.
## Task Value lookup for EC50; key = COC(=O)N[C@H](C(=O)N1CCC[C@H]1c1ncc(-c2cc(F)c(-c3ccc(-c4cnc([C@@H]5CCCN5C(=O)[C@H](NC(=O)OC)c5ccccc5)[nH]4)cc3)c(-c3ccccc3)c2)[nH]1)C(C)C [2(26)•2HCl, dihydrochloride]
## Result 3.1

====

- assay explanation: Bioavailability of new inhibitors in rats
- conditions: rat, in vivo
measurement name: bioavailability (%)
Note: unit % is implicit; provide only the numeric part.

## Task Value lookup for bioavailability; key = COC(=O)N[C@H](C(=O)N1CCC[C@H]1c1ncc(-c2ccc(C#CC#Cc3cnc([C@@H]4CCCN4C(=O)[C@H](NC(=O)OC)c4ccccc4)[nH]3)c(-c3ccccc3)c2)[nH]1)C(C)C.Cl.Cl [2(7)•2HCl]
## Result 31

====

- System: HCV gT2a replicon
- assay explanation: HCV replicon assay, gT2a
- Format: cell-based, Hepatitis C virus (HCV)
- conditions: Hepatitis C virus, GT2A, Huh-7; Huh7 replicon cells; mean
Structures can show the parent of a compound that is named as a salt.
Some molecules, each annotated with its measured EC50.
Note: unit pM is implicit; provide only the numeric part.

Use the examples below as a reference point.
• COC(=O)N[C@H](C(=O)N1CCC[C@H]1c1ncc(-c2ccc(C#CC#Cc3cnc([C@@H]4CCCN4C(=O)[C@H](NC(=O)OC)c4ccccc4)[nH]3)c(Oc3ccccc3)c2)[nH]1)C(C)C [2(19)•2HCl, dihydrochloride] = 12.6
• COC(=O)N[C@H](C(=O)N1CCC[C@H]1c1ncc(-c2ccc(-c3ccc(-c4cnc([C@@H]5CCCN5C(=O)[C@H](NC(=O)OC)c5ccccc5)[nH]4)cc3)c(N(C)c3ccccc3)c2)[nH]1)C(C)C [2(25)•2HCl, trihydrochloride] = 5.5
• COC(=O)N[C@H](C(=O)N1CCC[C@H]1c1ncc(-c2cc(F)c(C#CC#Cc3cnc([C@@H]4CCCN4C(=O)[C@H](NC(=O)OC)c4ccccc4)[nH]3)c(-c3ccccc3)c2)[nH]1)C(C)C [2(17)•2HCl, dihydrochloride] = 5
• COC(=O)N[C@H](C(=O)N1CCC[C@H]1c1ncc(-c2ccc(C#CC#Cc3cnc([C@@H]4CCCN4C(=O)[C@H](NC(=O)OC)c4ccccc4)[nH]3)c(-c3ccccc3)c2)[nH]1)C(C)C.Cl.Cl [2(7)•2HCl, dihydrochloride] = 5.9
• COC(=O)N[C@H](C(=O)N1CCC[C@H]1c1ncc(-c2ccc(-c3ccc(-c4cnc([C@@H]5CCCN5C(=O)[C@H](NC(=O)OC)c5ccccc5)[nH]4)cc3)c(Sc3ccccc3)c2)[nH]1)C(C)C [2(24)•2HCl, dihydrochloride] = 4
• COC(=O)N[C@H](C(=O)N1CCC[C@H]1c1ncc(-c2cc(C)c(C#CC#Cc3cnc([C@@H]4CCCN4C(=O)[C@H](NC(=O)OC)c4ccccc4)[nH]3)c(-c3ccccc3)c2)[nH]1)C(C)C [2(18)•2HCl, dihydrochloride] = 3

## Task Item: COC(=O)N[C@H](C(=O)N1CCC[C@H]1c1ncc(-c2cc(C)c(-c3ccc(-c4cnc([C@@H]5CCCN5C(=O)[C@H](NC(=O)OC)c5ccccc5)[nH]4)cc3)c(-c3ccccc3)c2)[nH]1)C(C)C [2(27)•2HCl, dihydrochloride] Test system: HCV gT2a replicon Read-out: EC50 Value: ?
## Result 7.9

====

- assay explanation: Cytotoxicity, cell viability by ATPLite Kit
- Type: cell-based, human
- conditions: human, Huh7 human hepatoma cells, 10% FBS, read-out: Cytotox gT1b 10% FBS CC50
measurement name: CC50 at 96 h

## Task Value lookup for CC50 at 96 h; key = COC(=O)N[C@H](C(=O)N1CCC[C@H]1c1ncc(-c2ccc(C#CC#Cc3cnc([C@@H]4CCCN4C(=O)[C@H](NC(=O)OC)c4ccccc4)[nH]3)c(-c3ccc(N4CCN(C)CC4)cc3)c2)[nH]1)C(C)C [2(15)•2HCl]
## Result 16.2 µM

====

- System: HCV gT1b replicon
- assay explanation: HCV replicon assay, gT1b
- Assay type: cell-based, Hepatitis C virus (HCV)
- conditions: Hepatitis C virus, GT1B, Huh-7; 40% NHS; Huh7 replicon cells; mean value; read-out: gT1b 40% NHS, EC50 (pM) mean
Structures can show the parent of a compound that is named as a salt.
measurement name: EC50 (pM)
Note: unit pM is implicit; provide only the numeric part.

Use the examples below as a reference point.
* COC(=O)N[C@H](C(=O)N1CCC[C@H]1c1ncc(C#CC#Cc2ccc(-c3cnc([C@@H]4CCCN4C(=O)[C@@H](NC(=O)OC)C(C)C)[nH]3)cc2-c2cccc(C(C)(C)C)c2)[nH]1)C(C)C [2(2)•2HCl, dihydrochloride] | 6.6
* COC(=O)N[C@H](C(=O)N1CCC[C@H]1c1ncc(-c2ccc(C#CC#Cc3cnc([C@@H]4CCCN4C(=O)[C@H](NC(=O)OC)c4ccccc4)[nH]3)c(-c3cccnc3)c2)[nH]1)C(C)C [2(16)•2HCl, trihydrochloride] | 36.2
* COC(=O)N[C@H](C(=O)N1CCC[C@H]1c1ncc(C#CC#Cc2ccc(-c3cnc([C@@H]4CCCN4C(=O)[C@H](NC(=O)OC)c4ccccc4)[nH]3)cc2-c2ccccc2)[nH]1)C(C)C [2(30)•2HCl, dihydrochloride] | 25.3
* COC(=O)N[C@H](C(=O)N1CCC[C@H]1c1ncc(-c2ccc(C#CC#Cc3cnc([C@@H]4CCCN4C(=O)[C@H](NC(=O)OC)c4ccccc4)[nH]3)c(-c3cccc(C(C)(C)C)c3)c2)[nH]1)C(C)C [2(10)•2HCl, dihydrochloride] | 8.13

## Task Item: COC(=O)N[C@H](C(=O)N1CCC[C@H]1c1ncc(-c2ccc(C#CC#Cc3cnc([C@@H]4CCCN4C(=O)[C@H](NC(=O)OC)c4ccccc4)[nH]3)c(N(C)c3ccccc3)c2)[nH]1)C(C)C [2(21)•2HCl, trihydrochloride] Test system: HCV gT1b replicon Read-out: EC50 Value: ?
## Result 14.2
